- assayed-target: human CB1 receptor (Homo sapiens (Human))
- Sequence (P21554 whole entry): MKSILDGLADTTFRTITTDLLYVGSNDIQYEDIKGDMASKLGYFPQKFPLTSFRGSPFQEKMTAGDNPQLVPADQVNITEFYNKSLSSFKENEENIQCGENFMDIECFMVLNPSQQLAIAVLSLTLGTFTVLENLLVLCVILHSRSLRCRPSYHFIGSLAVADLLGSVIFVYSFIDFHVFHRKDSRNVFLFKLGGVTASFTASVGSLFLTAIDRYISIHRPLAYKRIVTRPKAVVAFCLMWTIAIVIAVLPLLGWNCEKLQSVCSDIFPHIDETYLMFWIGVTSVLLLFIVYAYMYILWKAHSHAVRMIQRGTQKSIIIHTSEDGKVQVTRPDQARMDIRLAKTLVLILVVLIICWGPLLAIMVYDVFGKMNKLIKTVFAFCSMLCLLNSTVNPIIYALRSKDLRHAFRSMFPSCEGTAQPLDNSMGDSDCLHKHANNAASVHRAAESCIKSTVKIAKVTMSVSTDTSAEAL
- assay-info: CB1 receptor antagonism, agonist-induced cAMP modulation (HTRF) in transfected CHO cells
- measurement-context: read-out: Antag IC50
experimental-readout: IC50

Known results for compounds:
INSERT INTO assay_data (smiles_representation, assay_result) VALUES
  ('Cc1cc(-c2c(-c3ccccc3)nc(N)n3c(=O)n(C[C@H]4CC(F)(F)CN4C)nc23)cc(C)n1', '35.8 µM'),
  ('Cc1cc(-c2c(-c3ccc(F)cc3)nc(N)n3c(=O)n(Cc4nc(C)oc4C)nc23)cc(CO)n1', '> 100 µM'),
  ('COc1cc(-c2c(-c3ccccc3)nc(N)n3c(=O)n(Cc4nccn4C)nc23)cc(CO)n1', '> 100 µM');

Next up:
Challenge: Record lookup: for human CB1 receptor (Homo sapiens (Human)), what IC50 belongs to `Cc1cc(-c2c(-c3ccccc3)nc(N)n3c(=O)n(CCc4nnnn4C)nc23)cc(C)n1` ?
Response given: > 100 µM
